- Tested on: Human non-small cell lung carcinoma cells, A549
- Method description: Cytotoxicity by counting cells after 72 h, Taxol-sensitive cells
- Type: cell-based
- Measurement parameters: Homo sapiens; Lung Carcinoma A549, Sensitive; 72 h; mean of at least three independent experiments; read-out: IC50
- Method: Taxol-resistant and sensitive cell lines were seeded into 12-well plates at a density of 5×10^4 cells per well and allowed a period of 12 h for attachment prior to treatment. […] Cells were then trypsinized and counted (Coulter counter model ZF0031, Coulter Corp., Miami, Fla.).
Outcome measure: pIC50
Answers are plain numbers, as −log10 of the molar value.

### Prompt Value lookup for pIC50; key = CO[C@]12C=C[C@](C)(O1)[C@@H](O)C[C@H]1C(C)=CC[C@H](C(C)C)[C@H]1C=C2CO[C@@H]1OC[C@@H](O)[C@@H](O)[C@@H]1O [SKBIII.13]
### Response 5.38

====

- Tested on: A549-T12 (Taxol-resistant A549)
- Method description: Cytotoxicity by counting cells after 72 h, Taxol-resistant cells
- Type: cell-based, human
- Measurement parameters: A549-T12 vs A549; 4320 min
- Method: Human non-small cell lung carcinoma cells, A549, were maintained in RPMI 1640 containing 10% fetal bovine serum and 1% penicillin-streptomycin (Gibco Laboratories, Grand Island N.Y.) at 37° C. in 7% CO2. […] Taxol-resistant and sensitive cell lines were seeded into 12-well plates at a density of 5×10^4 cells per well and allowed a period of 12 h for attachment prior to treatment. […] Cells were then trypsinized and counted (Coulter counter model ZF0031, Coulter Corp., Miami, Fla.). […]
Could you please report measured fold resistance relative to the parental cell line for the items listed next?
One number for each entry, in fold.

Examples with answers:
CO[C@]12C=C[C@](C)(O1)[C@@H](OC(=O)/C=C/c1cn(C)cn1)C[C@H]1C(C)=CC[C@H](C(C)C)[C@H]1/C=C\2CO[C@@H]1OC[C@@H](O)[C@@H](O)[C@@H]1OC(C)=O	1.9
CO[C@]12C=C[C@](C)(O1)[C@@H](OC(=O)/C=C/c1cn(C)cn1)C[C@H]1C(C)=CC[C@H](C(C)C)[C@H]1C=C2CO[C@H]1OC[C@H](O)[C@H](O)[C@H]1OC(C)=O	1.2
CO[C@]12C=C[C@](C)(O1)[C@@H](OC(=O)/C=C/c1cn(C)cn1)C[C@H]1C(C)=CC[C@H](C(C)C)[C@H]1C=C2COC(C)=O	1.1

Field: next compound
### Prompt fold resistance relative to the parental cell line lookup needed for CO[C@]12C=C[C@@H]3[C@@H](C(C)C)CC=C(C)[C@@H]3C[C@H](OC(=O)/C=C/c3cn(C)cn3)[C@](C)(C=C1)O2 , thanks.
### Response 10

====

- Test system: SKVBL (MDR variant of SKOV3)
- Method description: Cytotoxicity by counting cells after 72 h, MDR variant cells
- Assay type: cell-based, human
- Measurement parameters: Homo sapiens, SK-OV-3; Ovarian Carcinoma SKOV3, Resistant (SKVBL); 72 h; mean of at least three independent experiments
Consider the following compounds; for each one, report its IC50.

Sample answers from the record:
CO[C@]12C=C[C@](C)(O1)[C@@H](OC(=O)/C=C/c1cn(C)cn1)C[C@H]1C(C)=CC[C@H](C(C)C)[C@H]1C=C2CO[C@H]1OC[C@H](O)[C@H](O)[C@H]1OC(C)=O [Neo-Eleutherobin]	> 1 µM
CC(=O)O[C@H]1C(=O)[C@@]2(C)[C@H]([C@H](OC(=O)c3ccccc3)[C@]3(O)C[C@H](OC(=O)[C@H](O)[C@@H](NC(=O)c4ccccc4)c4ccccc4)C(C)=C1C3(C)C)[C@]1(OC(C)=O)CO[C@@H]1C[C@@H]2O [Taxol, reference compound]	> 5 µM

Pending compound:
### Prompt Observed IC50 on SKVBL (MDR variant of SKOV3) for CO[C@]12C=C[C@](C)(O1)[C@@H](OC(=O)/C=C/c1cn(C)cn1)C[C@H]1C(C)=CC[C@H](C(C)C)[C@H]1/C=C\2CO[C@@H]1OC[C@@H](O)[C@@H](O)[C@@H]1OC(C)=O [Eleutherobin] , please.
### Response > 1 µM
